// provenance: paper doi:10.1101/2025.01.11.632576

- study system: recombinant human HER2 (AA 23-653) (Homo sapiens, UniProt P04626)
- assay procedure: SPR
observable: binding result

INSERT INTO assay_data (binder, observable, result) VALUES
  ('HER2 VHH (2Rs15d) T58A (VHH) VHH: QVQLQESGGGSVQAGGSLKLTCAASGYIFNSCGMGWYRQSPGRERELVSRISGDGDAWHKESVKGRFTISQDNVKKTLYLQMNSLKPEDTAVYFCAVCYNLETYWGQGTQVTVSS', 'binding result', 'binds'),
  ('HER2 VHH (2Rs15d) T58D (VHH) VHH: QVQLQESGGGSVQAGGSLKLTCAASGYIFNSCGMGWYRQSPGRERELVSRISGDGDDWHKESVKGRFTISQDNVKKTLYLQMNSLKPEDTAVYFCAVCYNLETYWGQGTQVTVSS', 'binding result', 'binds'),
  ('HER2 VHH (2Rs15d) G54A (VHH) VHH: QVQLQESGGGSVQAGGSLKLTCAASGYIFNSCGMGWYRQSPGRERELVSRISADGDTWHKESVKGRFTISQDNVKKTLYLQMNSLKPEDTAVYFCAVCYNLETYWGQGTQVTVSS', 'binding result', 'binds'),
  ('HER2 VHH (2Rs15d) G54K (VHH) VHH: QVQLQESGGGSVQAGGSLKLTCAASGYIFNSCGMGWYRQSPGRERELVSRISKDGDTWHKESVKGRFTISQDNVKKTLYLQMNSLKPEDTAVYFCAVCYNLETYWGQGTQVTVSS', 'binding result', 'binds');
